- measured-on: Arf6 (Homo sapiens (Human))
- assay-overview: Fluorometric assay for Arf6 nucleotide exchange catalyzed by ARNO Sec7 domain (GTP-BODIPY FL)
- Format: biochemical
- particulars: 20 nM Arf6 assay; read-out: IC50 (μM) 20 nM Arf6
What IC50 was measured for each of the following?
Answers are plain numbers, in µM.

Cc1nn2c(=O)cc(-c3ccc([N+](=O)[O-])cc3)[nH]c2c1-c1cccc2ccccc12 ... 2.7
O=c1c(Cl)c(-c2ccccc2)[nH]c2c(-c3ccc(Cl)cc3)c(Cc3ccccc3)nn12 ... 2.5
O=c1cc(-c2ccc(-c3cccnc3)cc2)[nH]c2c(-c3ccc(Cl)cc3)c(C(F)(F)F)nn12 ... 1.1
Nc1ccc(-c2cc(=O)n3nc(C(F)(F)F)c(-c4ccc(Cl)cc4)c3[nH]2)cc1 ... 5.2
O=c1cc(-c2cccc(Oc3ccccc3)c2)[nH]c2c(-c3ccc(Cl)c(Cl)c3)c(C3CC3)nn12 ... 1

Each of the following entries comes with a recorded value; kindly state IC50 for each.
1. Cc1nn2c(=O)cc(-c3ccc([N+](=O)[O-])cc3)[nH]c2c1C1CCCC1
2. O=[N+]([O-])c1ccc(C2=CC(O)n3nc(-c4cccc(Cl)c4)cc3N2)cc1 (stereo not shown)
3. Fc1ccc(C2=CCN(c3nc(-c4ccncc4)nc4c3CNC4)CC2)cc1
4. COc1ccc(-c2cccc(-c3cc(=O)n4nc(C(F)(F)F)c(-c5ccc(Cl)cc5)c4[nH]3)c2)cn1
5. O=c1cc(-c2ccc([N+](=O)[O-])cc2)[nH]c2c(-c3ccc(Cl)cc3)c(-c3ccccc3)nn12
6. O=c1c(Cl)c(-c2ccccc2)[nH]c2c(-c3ccc(Cl)cc3)c(C(F)(F)F)nn12
7. CC(C)CC(=O)Nc1cccc(-c2cc(=O)n3nc(C(F)(F)F)c(-c4ccc(Cl)cc4)c3[nH]2)c1

19
13
1.2
1.5
0.96
0.98
2.5

The value of IC50 measured for the compound `Cc1nn2c(=O)cc(-c3ccc([N+](=O)[O-])cc3)[nH]c2c1-c1ccc(Cl)cc1` turned out to be 1.9

----------
- measured-on: Arf6 (Homo sapiens (Human), UniProt P62330)
- Sequence (P62330 14-175): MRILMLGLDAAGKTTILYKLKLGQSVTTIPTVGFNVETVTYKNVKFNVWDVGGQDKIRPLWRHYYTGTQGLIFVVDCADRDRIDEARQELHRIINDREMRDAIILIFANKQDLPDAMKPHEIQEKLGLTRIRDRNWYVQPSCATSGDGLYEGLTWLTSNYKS
- assay-overview: Fluorometric assay for Arf6 nucleotide exchange catalyzed by ARNO Sec7 domain (GTP-BODIPY FL)
- Format: biochemical
- particulars: 200 nM Arf6 assay; read-out: IC50 (μM) 200 nM Arf6
value-type: IC50 (µM)
Answers are plain numbers, in µM.

Reference set, count: 5
COc1ccc(-c2c(Cc3ccccc3)nn3c(=O)cc(-c4ccc([N+](=O)[O-])cc4)[nH]c23)cc1 [Compound 55] ... 3.1
O=c1cc(-c2ccccc2)[nH]c2c(-c3ccc(Cl)cc3)c(Cc3ccccc3)nn12 [Compound 29] ... 3.3
O=c1cc(Cc2ccccc2)[nH]c2c(-c3ccc(Cl)cc3)c(C(F)(F)F)nn12 [Compound 65] ... 4.9
CN(C)C(=O)c1ccc(-c2cc(=O)n3nc(Cc4ccccc4)c(-c4ccc(Cl)cc4)c3[nH]2)cc1 [Compound 56] ... 2.6
O=c1cc(Cc2ccccc2)[nH]c2c(-c3ccc(Cl)cc3)c(Cc3ccccc3)nn12 [Compound 99] ... 11

// moving on: another record for IC50
The measured IC50 that COc1ccc(Cc2nn3c(=O)cc(-c4ccc([N+](=O)[O-])cc4)[nH]c3c2-c2ccccc2)cc1 [Compound 64] showed for Arf6 (Homo sapiens (Human), UniProt P62330) is 3.6
